Could you please report measured pIC50 for the items listed next?
molecular target: human PD-1 / PD-L1-Ig binding on Jurkat cell line over-expressing human PD-1 (Jurkat-PD-1) (Homo sapiens, UniProt Q15116); construct: expressed in transfected cells; host or cells: Jurkat; assay: Jurkat-PD-1 Cell Binding High-Content Screening Assay (CBA); format: cell-based; settings: Jurkat-PD-1 cells, PE-labeled PD-L1-Ig 20 nM final; read-out: Jurkat HPD1_PDL1 IC50
Sequence (Q15116 25-288): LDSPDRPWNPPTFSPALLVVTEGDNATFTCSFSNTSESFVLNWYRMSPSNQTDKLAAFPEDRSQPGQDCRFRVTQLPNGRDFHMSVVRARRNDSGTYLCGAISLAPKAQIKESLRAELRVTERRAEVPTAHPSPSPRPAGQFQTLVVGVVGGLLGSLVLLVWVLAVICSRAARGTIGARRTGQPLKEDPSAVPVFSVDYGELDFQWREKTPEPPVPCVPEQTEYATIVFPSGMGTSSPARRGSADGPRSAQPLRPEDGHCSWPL
Note on units: pIC50 is unitless, being -log10 of a concentration expressed in mol/L.

pIC50 recorded for this compound, CC(C)C[C@H]1NC(=O)[C@H](CCCN)NC(=O)[C@H](C(C)C)NC(=O)[C@H](Cc2ccc(-c3ccccc3)cc2)NC(=O)[C@H](C(C)C)NC(=O)[C@H](Cc2c[nH]c3ccccc23)NC(=O)[C@H](CC(=O)O)NC(=O)[C@H](Cc2ccc(OCC(=O)O)cc2)NC(=O)[C@H](CN)NC(=O)CSC[C@@H](C(=O)N[C@@H](C)C(N)=O)NC(=O)[C@H]([C@@H](C)O)NC(=O)[C@H](C(C)C)NC(=O)[C@H](CC2CCCCC2)NC(=O)[C@H](Cc2cnc[nH]2)NC1=O , is 7.81

According to the records, this compound COc1cccc(C[C@@H]2NC(=O)[C@H](CC(=O)O)NC(=O)[C@H](Cc3ccc(OCC(=O)O)cc3)NC(=O)[C@H](CN)NC(=O)CSC[C@@H](C(=O)N[C@@H](C)C(N)=O)NC(=O)[C@H]([C@@H](C)O)NC(=O)[C@H](C(C)C)NC(=O)[C@H](CC3CCCCC3)NC(=O)[C@H](CCN)NC(=O)[C@@H](CC(C)C)NC(=O)[C@H](CCCN)NC(=O)[C@H](CCC(=O)O)NC(=O)[C@H](Cc3ccc(-c4ccccc4)cc3)NC(=O)[C@H](C(C)C)NC2=O)c1 displays pIC50 of 6.95

###

For each entry below, report its pIC50 value.
target: human PD-1 / PD-L1-Ig binding on Jurkat cell line over-expressing human PD-1 (Jurkat-PD-1) (Homo sapiens, UniProt Q15116); construct: expressed in transfected cells; host or cells: Jurkat; test: Jurkat-PD-1 Cell Binding High-Content Screening Assay (CBA); type: cell-based; details: Jurkat-PD-1 cells, PE-labeled PD-L1-Ig 20 nM final; read-out: Jurkat HPD1_PDL1 IC50
Where a SMILES comes first, the peptide text is derived from it. Bridges are numbered along the chain shown (N, C = ends). [ ]: non-standard residue; d: D form. Bip = N[C@@H](Cc1ccc(-c2ccccc2)cc1)C(=O)O; Dab = NCC[C@H](N)C(=O)O
Scale: negative log10 of molar concentration, which is what pIC50 denotes.

# compound CC(C)C[C@@H]1NC(=O)[C@H](Cc2c[nH]c3ccccc23)NC(=O)[C@H](CC(=O)O)NC(=O)[C@H](Cc2ccc(O)cc2)NC(=O)[C@H](Cc2ccccc2)NC(=O)CSC[C@@H](C(=O)N[C@@H](C)C(N)=O)NC(=O)[C@H]([C@@H](C)O)NC(=O)[C@H](C(C)C)NC(=O)[C@H](CC(C)C)NC(=O)[C@H](CC(N)=O)NC(=O)[C@@H](C)NC(=O)[C@H](CCN)NC(=O)[C@H](C(C)C)NC(=O)[C@H](Cc2ccc(-c3ccccc3)cc2)NC1=O [Compound 1101] ({CH2CO}-FYDWL[Bip]V[Dab][dA]NLVTCA-NH2; thioether N-14) ; its pIC50 = 6.90

Kindly note the recorded pIC50 for CC(C)C[C@H]1NC(=O)[C@H](CCCN)NC(=O)[C@H](CCCNC(N)=O)NC(=O)[C@H](Cc2ccc(-c3ccccc3)cc2)NC(=O)[C@H](C(C)C)NC(=O)[C@H](Cc2c[nH]c3ccccc23)NC(=O)[C@H](CC(=O)O)NC(=O)[C@H](Cc2csc3ccccc23)NC(=O)[C@H](CN)NC(=O)CSC[C@@H](C(=O)N[C@@H](C)C(N)=O)NC(=O)[C@H]([C@@H](C)O)NC(=O)[C@H](C(C)C)NC(=O)[C@H](CC2CCCCC2)NC(=O)[C@H](CCN)NC1=O , which is 7.16

###

target: human PD-1 / PD-L1-Ig binding on Jurkat cell line over-expressing human PD-1 (Jurkat-PD-1) (Homo sapiens); construct: expressed in transfected cells; host or cells: Jurkat; assay: Jurkat-PD-1 Cell Binding High-Content Screening Assay (CBA); type: cell-based; conditions: Jurkat-PD-1 cells, PE-labeled PD-L1-Ig 20 nM final; read-out: Jurkat HPD1_PDL1 IC50
Where a SMILES comes first, the peptide text is derived from it. Bridges are numbered along the chain shown (N, C = ends). [ ]: non-standard residue; d: D form. ξ: configuration not given here. Bip = N[C@@H](Cc1ccc(-c2ccccc2)cc1)C(=O)O; ξIle = CC[C@H](C)C(N)C(=O)O; Dab = NCC[C@H](N)C(=O)O; Dap = NC[C@H](N)C(=O)O
Consider the following compounds; for each one, report its IC50.
Provide only the numeric value, understood in nM.

Per the records, this compound ( CC(C)C[C@@H]1NC(=O)[C@H](Cc2c[nH]c3ccccc23)NC(=O)[C@H](CC(=O)O)NC(=O)[C@H](Cc2ccc(O)cc2)NC(=O)[C@H](Cc2ccccc2)NC(=O)CSC[C@@H](C(=O)NCC(N)=O)NC(=O)[C@H](CO)NC(=O)[C@H](C(C)C)NC(=O)[C@H](CC(C)C)NC(=O)[C@H](CCN)NC(=O)[C@@H](CC(C)C)NC(=O)[C@H](CCN)NC(=O)[C@H](C(C)C)NC(=O)[C@H](Cc2ccc(-c3ccccc3)cc2)NC1=O [Compound 1063] ({CH2CO}-FYDWL[Bip]V[Dab][dL][Dab]LVSCG-NH2; thioether N-14) ) has IC50 equal to 19.8

Item: CC(C)C[C@H]1NC(=O)[C@H](CCCN)NC(=O)[C@H](CCC(=O)O)NC(=O)[C@H](Cc2ccc(-c3ccccc3)cc2)NC(=O)[C@H](C(C)C)NC(=O)[C@H](Cc2cccc(Cl)c2)NC(=O)[C@H](CC(=O)O)NC(=O)[C@H](Cc2ccc(OCC(=O)O)cc2)NC(=O)[C@H](Cc2ccc(OCC(=O)O)cc2)NC(=O)CSC[C@@H](C(=O)N[C@@H](C)C(N)=O)NC(=O)[C@H]([C@@H](C)O)NC(=O)[C@H](C(C)C)NC(=O)[C@H](CC2CCCCC2)NC(=O)[C@H](CCN)NC1=O | IC50: 20.2

The compound listed as CC[C@H](C)C1NC(=O)[C@H](Cc2ccc(-c3ccccc3)cc2)NC(=O)[C@H](C(C)C)NC(=O)[C@H](Cc2c[nH]c3ccccc23)NC(=O)[C@H](CC(N)=O)NC(=O)[C@H](Cc2ccc(O)cc2)NC(=O)[C@H](CN)NC(=O)CSC[C@@H](C(=O)N[C@@H](C)C(N)=O)NC(=O)[C@H]([C@@H](C)O)NC(=O)[C@H](C(C)C)NC(=O)[C@H](CC(C)C)NC(=O)[C@H](CCN)NC(=O)[C@@H](CC(C)C)NC(=O)[C@H](CCN)NC1=O (stereo partly drawn) [Compound 1090] ({CH2CO}-[Dap]YNWV[Bip][ξIle][Dab][dL][Dab]LVTCA-NH2; thioether N-14) shows IC50 equal to 28

// IC50 value for CC(C)C[C@H]1NC(=O)[C@H](CCCN)NC(=O)[C@H](C(C)C)NC(=O)[C@H](Cc2ccc(-c3ccccc3)cc2)NC(=O)[C@H](C(C)C)NC(=O)[C@H](Cc2c[nH]c3ccccc23)NC(=O)[C@H](CC(=O)O)NC(=O)[C@H](Cc2ccc(O)cc2)NC(=O)[C@H](Cc2ccc(OCC(=O)O)cc2)NC(=O)CSC[C@@H](C(=O)N[C@@H](C)C(N)=O)NC(=O)[C@H]([C@@H](C)O)NC(=O)[C@H](C(C)C)NC(=O)[C@H](CC2CCCCC2)NC(=O)[C@H](CCN)NC1=O : 9.7

###

Biological target: human PD-1 / PD-L1-Ig binding on Jurkat cell line over-expressing human PD-1 (Jurkat-PD-1) (Homo sapiens)
Construct: expressed in transfected cells; host or cells: Jurkat
Test: Jurkat-PD-1 Cell Binding High-Content Screening Assay (CBA)
Type: cell-based
Conditions: Jurkat-PD-1 cells, PE-labeled PD-L1-Ig 20 nM final; read-out: Jurkat HPD1_PDL1 IC50
Experimental: Example 3. Jurkat-PD-1 Cell Binding High-Content Screening Assay (CBA) Jurkat-PD-1 Cell Binding High-Content Screening Assay (CBA). Phycoerythrin (PE) was covalently linked to the Ig epitope tag of human PD-L1-Ig and fluorescently-labeled PD-L1-Ig was used for binding studies with a Jurkat cell line over-expressing human PD-1 (Jurkat-PD-1). Briefly, 8×10^3 Jurkat-hPD-1 cells were seeded into 384 well plates in 20 μl of DMEM supplemented with 10% fetal calf serum. […]
pIC50: −log10 of the molar value. Where a SMILES comes first, the peptide text is derived from it. Bridges are numbered along the chain shown (N, C = ends). [ ]: non-standard residue; d: D form. Bip = N[C@@H](Cc1ccc(-c2ccccc2)cc1)C(=O)O; Phe(3-Me) = Cc1cccc(C[C@H](N)C(=O)O)c1; aIle = CC[C@@H](C)[C@H](N)C(=O)O; Orn = NCCC[C@H](N)C(=O)O; Dab = NCC[C@H](N)C(=O)O
Decide using pIC50: a value greater than or equal to 8 is YES, a smaller one is NO.

Q. Reported pIC50 at or above 8? CC[C@@H](C)[C@@H]1NC(=O)[C@H](Cc2ccc(-c3ccccc3)cc2)NC(=O)[C@H](C(C)C)NC(=O)[C@H](Cc2cccc(C)c2)NC(=O)[C@H](CC(=O)O)NC(=O)[C@H](Cc2ccc(O)cc2)NC(=O)[C@H](CC(N)=O)NC(=O)CSC[C@@H](C(N)=O)NC(=O)[C@H]([C@@H](C)O)NC(=O)[C@H](C(C)C)NC(=O)[C@H](CC(C)C)NC(=O)[C@H](CCN)NC(=O)[C@@H](CC(C)C)NC(=O)[C@H](CCCN)NC1=O [Compound 1657] ({CH2CO}-NYD[Phe(3-Me)]V[Bip][aIle][Orn][dL][Dab]LVTC-NH2; thioether N-14)
A. NO

Q. Quick check, pIC50 >= 8? CCC(C)[C@@H]1NC(=O)[C@H](Cc2ccc(-c3ccccc3)cc2)NC(=O)[C@H](C(C)C)NC(=O)[C@H](Cc2cccc(C)c2)NC(=O)[C@H](CC(=O)O)NC(=O)[C@H](Cc2ccc(OCC(=O)O)cc2)NC(=O)[C@H](CN)NC(=O)CSC[C@@H](C(=O)N[C@@H](C)C(N)=O)NC(=O)[C@H](CO)NC(=O)[C@H](C(C)C)NC(=O)[C@H](CC2CCCCC2)NC(=O)[C@H](CCN)NC(=O)[C@@H](CC(C)C)NC(=O)[C@H](CCCN)NC1=O (some centres unmarked)
A. NO

Q. Assess whether reported pIC50 for CC(C)C[C@@H]1NC(=O)[C@H](CCCCN)NC(=O)[C@@H](CC(C)C)NC(=O)[C@H](CCCN)NC(=O)[C@H](C(C)C)NC(=O)[C@H](Cc2ccc(-c3ccccc3)cc2)NC(=O)[C@H](C(C)C)NC(=O)[C@H](Cc2c[nH]c3ccccc23)NC(=O)[C@H](CC(=O)O)NC(=O)[C@H](Cc2ccc(O)cc2)NC(=O)[C@H](CC(N)=O)NC(=O)CSC[C@@H](C(=O)N[C@@H](C)C(N)=O)NC(=O)[C@H](CO)NC(=O)[C@H](C(C)C)NC1=O [Compound 1132] ({CH2CO}-NYDWV[Bip]V[Orn][dL]KLVSCA-NH2; thioether N-14) sits at 8 or higher.
A. NO

Q. Form field: pIC50 at least 8? Entry: CC[C@H](C)[C@@H]1NC(=O)[C@H](Cc2ccc(-c3ccccc3)cc2)NC(=O)[C@H](C(C)C)NC(=O)[C@H](Cc2cccc(C)c2)NC(=O)[C@H](CC(=O)O)NC(=O)[C@H](Cc2ccc(C(=O)O)cc2)NC(=O)[C@H](CN)NC(=O)CSC[C@@H](C(=O)N[C@@H](C)C(N)=O)NC(=O)[C@H]([C@@H](C)O)NC(=O)[C@H](C(C)C)NC(=O)[C@H](CC2CCCCC2)NC(=O)[C@H](CCN)NC(=O)[C@@H](CC(C)C)NC(=O)[C@H](CCCN)NC1=O
A. YES
